# Tested on: TK-10 renal
# measurement_notes: NCI-60 one-dose screen, 48 h (100 = growth as untreated, 0 = no growth, -100 = all killed)
# reported_conditions: 10 µM unless noted
This is part of a sample that, as a whole, favours compounds with a hit. Of some 83,000 tested, about 20% had one in any assay.
I'd be grateful if you could share measured growth for these entries.
Give bare numbers, in %.

Below, each entry is followed by its recorded growth result.
>  <compound>
O=c1[nH]c2ccccc2cc1COc1ccc(Nc2nccc(-c3ccc(Cl)cc3)n2)cc1

>  <uom>
%

>  <growth>
111

$$$$
>  <compound>
Nc1nn2c(-c3cc4cc(Br)ccc4oc3=O)ccnc2c1N=Nc1ccc(Br)cc1

>  <uom>
%

>  <growth>
23.4

$$$$
>  <compound>
Cc1ccc(S(=O)(=O)N(CCn2ccnc2[N+](=O)[O-])CCn2ccnc2[N+](=O)[O-])cc1

>  <uom>
%

>  <growth>
98.4

$$$$
>  <compound>
Cc1cccc(C)c1Nc1nnc(-c2c[nH]c3ccccc23)o1

>  <uom>
%

>  <growth>
148

$$$$

For every record below, what is its growth?
1. Cc1ccccc1NC(=O)c1cccc(NC(=O)CCl)c1
2. Nc1cc2ccccc2c(=O)n1NC(=O)c1ccccc1
3. O=C1Nc2cc(-c3ccc(NS(=O)(=O)c4ccc(C(F)(F)F)cc4)cc3)ccc2/C1=C/c1ccc[nH]1
4. COc1cc(C2C(C(=O)OCc3ccccc3)=C(C)Nc3nc4ccccc4n32)cc(OC)c1OC (configuration not stated)

1: 88.2; 2: 127; 3: 32.5; 4: 34.6

====

# Tested on: HOP-62 NSCLC
# measurement_notes: NCI-60 one-dose screen, 48 h
# reported_conditions: 10 µM unless noted
# Procedure: Growth inhibition of the HOP-62 human Non-Small Cell Lung tumor cell line is measured as a screen for anti-cancer activity. Cells are grown in 96 well plates and exposed to the test compound for 48 hours. Compounds are tested at a single concentration, which is 10^-5 M for most compounds. The reported endpoint is percent growth (GI% or GIPRCNT), where numbers from 0 - 100% represent growth inhibition, and numbers from -100% - 0 represent cell death. […]
The panel holds about 83,000 compounds, 20% with a hit somewhere; the sample as a whole holds those more often. Activity calls are given as the source filed them. Rule for the calls: active = growth percent below 10; inactive = the rest.
Classes to choose from: true for active, false for inactive

Use these answered entries as a reference point.
>  <smiles_str>
COc1c(B(O)O)cc(F)cc1-c1nc2c(F)cc3[nH]ncc3c2c2c1CCCC2

>  <category>
false

$$$$
>  <smiles_str>
CC(C)CN1C(=O)/C(=C\C(=O)c2cc3ccccc3oc2=O)c2ccccc21

>  <category>
false

$$$$
>  <smiles_str>
Cc1nc2sccn2c1-c1nnc(SCc2ccccc2)o1

>  <category>
false

$$$$
>  <smiles_str>
O=C(NN1C(=O)/C(=C/C=C/c2ccc([N+](=O)[O-])o2)SC1=S)c1ccc([N+](=O)[O-])cc1

>  <category>
true

$$$$
>  <smiles_str>
Cc1ccc(N=Nc2c(N)nn3c(-c4cc5ccccc5oc4=O)ccnc23)cc1

>  <category>
false

$$$$

Given `c1n[nH]cc1-c1nc2ccc3[nH]ncc3c2c2c1CC1(CC2)COC1` , state the outcome it received in this test. false

====

# Test system: BT-549 breast
# measurement_notes: NCI-60 one-dose screen, 48 h
# reported_conditions: 10 µM unless noted
About 83,000 compounds went through this panel and 20% of them were active in at least one assay; those are over-represented in the sample as a whole. Active and inactive are the calls of the source. Rule for the calls: active = growth percent below 10; inactive = the rest.
Classes to choose from: 1.0 (active), 0.0 (inactive)

Use these answered entries as a reference point.
>  <compound>
COc1ccc2[nH]c(O)c(N=NC(=O)c3ccc4nc(-c5ccc(Cl)cc5)[nH]c4c3)c2c1

>  <category>
0.0

$$$$
>  <compound>
O=C(c1ccc(Cl)cc1)C1[C@H](c2ccccc2Cl)[C@@H](c2ccccc2)NC12C(=O)Nc1ccccc12 (stereo not given in full)

>  <category>
1.0

$$$$
>  <compound>
COc1ccc(NC(=O)Cn2c(/C=C/c3ccc([N+](=O)[O-])cc3)nc3ccccc3c2=O)cc1

>  <category>
0.0

$$$$
>  <compound>
COC(=O)c1cc(C(=O)C(F)(F)F)n2c3ccccc3c3ccccc3c12

>  <category>
0.0

$$$$

Given `Cc1ccc(/C=C/C(=O)c2ccc(S(=O)(=O)NCCNc3nc(N(C)C)nc(N4CCOCC4)n3)cc2)cc1` , state the outcome it received in this test. 0.0
